Recorded below: IC50, system α7-subtype of nicotinic receptors (Rattus norvegicus).
measure: IC50

1. c1ccc2c(c1)OC(c1nnc(N3CCN4CCC3CC4)o1)O2 [Compound 2]    750 nM
2. c1ccc2c(c1)OCC(c1nnc(N3CCN4CCC3CC4)o1)O2 (stereo not drawn) [Compound 3]    1800 nM
3. c1ccc2c(c1)CC(c1nnc(N3CCN4CCC3CC4)o1)C2 [Compound 1]    610 nM
